Test system: CP185
METHOD: qHTS profiling for inhibitors of Plasmodium falciparum proliferation (AID 504749); also: nearly all actives have a fitted effect of over 60% in size
DETAILS: P. falciparum in erythrocytes, SYBR Green DNA, 72 h; series mostly up to 28.7 µM
Results filed as inconclusive are left out. The source made the active and inactive calls. Calls follow the shape of the dose curve; as a rule, active = well fitted inhibition curve with a large enough effect; inconclusive = small, poorly fitted or top-dose-only effect; inactive = flat fitted curve, though single readings scatter.
API: response.call in true = active, false = inactive

*Q* I would be grateful if you could indicate the recorded call for `CC[C@@H]1/C=C(\C)C[C@H](C)C[C@H](OC)[C@H]2O[C@@](O)(C(=O)C(=O)N3CCCC[C@H]3C(=O)O[C@H](/C(C)=C/[C@@H]3CC[C@H](Cl)[C@H](OC)C3)[C@H](C)[C@@H](O)CC1=O)[C@H](C)C[C@@H]2OC` .
*A* false

*Q* I would be grateful if you could indicate the recorded call for CCCCC(=O)OCC(=O)[C@]1(O)Cc2c(O)c3c(c(O)c2[C@H](OC2CC(NC(=O)C(F)(F)F)C(O)C(C)O2)C1)C(=O)c1c(OC)cccc1C3=O (stereo partly drawn) .
*A* true

*Q* I would be grateful if you could indicate the recorded call for `CCN(CC)C(=O)Nc1ccc(OC[C@H](O)CNC(C)(C)C)c(C(C)=O)c1` .
*A* false
